Values were extracted from the supplement of paper PMC10567573.

B1: C19orf51 (parent)
chain: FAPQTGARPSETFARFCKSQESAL

# Variants of: B1
# test method notes: protein stability index of a GFP-peptide fusion (GPS, HEK-293T) (PSI 1-6); higher = more stable;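 note: lentivirally expressed fusions sorted by FACS into six bins by GFP to DsRed ratio, PSI derived from sequencing read proportions per bin multiplied by bin number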
# settings: c terminus: a fixed tail appended
Threshold check on protein stability index: at or above 2 gives MET, strictly below gives NOT MET.

mutation code	class name
F13R	NOT MET
F16E	NOT MET
A7K	NOT MET
L24Y	MET
A23N	MET
F16C	MET
K18Q	NOT MET
F1D	MET
F13K	MET
L24C	MET
A7T	MET
G6S	NOT MET
S10E	NOT MET
T5Q	MET
P9R	MET
Q20L	NOT MET
R8I	NOT MET
R8H	MET
C17N	MET
P9T	MET
F1C	NOT MET
